Test system: TMD8 cells
Protocol: 4-day proliferation assay, TMD8
Assay type: cell-based
Measurement parameters: Homo sapiens, 96 h, 4 days incubation, CellTiterGLO, read-out: Anti-proliferation: TMD-8 IC50
pIC50: −log10 of the molar value.
Each entry below lists one item and its recorded pIC50 value.

- Compound: "CN1CCN(C(=O)c2ncc(NC(=O)c3cnn(-c4cncc5ccccc45)c3C(F)(F)F)cc2C#N)CC1 [Cpd 96]"
  Endpoint name: "pIC50"
  Result: "~4.81"

Tell me reported pIC50 for O=C(Nc1cnc(-c2nccs2)c(Cl)c1)c1cnn(-c2cncc3ccccc23)c1C(F)(F)F [compound 63] , tested with TMD8 cells.
< 5.10

And the next one, O=C(Nc1cnc(-n2nccn2)c(Cl)c1)c1cnn(-c2cccc3[nH]ncc23)c1C(F)(F)F [Cpd 68] ?
~4.72

And the next one, Cc1ncc(-n2ncc(C(=O)Nc3cnc(-n4nccn4)c(Cl)c3)c2C(F)(F)F)c2ccccc12 [Cpd 66] ?
~5.06

Where do these numbers come from? They come from patent US10954214B2.
